Molecular target: UniProt:Q14432
Sequence (Q14432 whole entry): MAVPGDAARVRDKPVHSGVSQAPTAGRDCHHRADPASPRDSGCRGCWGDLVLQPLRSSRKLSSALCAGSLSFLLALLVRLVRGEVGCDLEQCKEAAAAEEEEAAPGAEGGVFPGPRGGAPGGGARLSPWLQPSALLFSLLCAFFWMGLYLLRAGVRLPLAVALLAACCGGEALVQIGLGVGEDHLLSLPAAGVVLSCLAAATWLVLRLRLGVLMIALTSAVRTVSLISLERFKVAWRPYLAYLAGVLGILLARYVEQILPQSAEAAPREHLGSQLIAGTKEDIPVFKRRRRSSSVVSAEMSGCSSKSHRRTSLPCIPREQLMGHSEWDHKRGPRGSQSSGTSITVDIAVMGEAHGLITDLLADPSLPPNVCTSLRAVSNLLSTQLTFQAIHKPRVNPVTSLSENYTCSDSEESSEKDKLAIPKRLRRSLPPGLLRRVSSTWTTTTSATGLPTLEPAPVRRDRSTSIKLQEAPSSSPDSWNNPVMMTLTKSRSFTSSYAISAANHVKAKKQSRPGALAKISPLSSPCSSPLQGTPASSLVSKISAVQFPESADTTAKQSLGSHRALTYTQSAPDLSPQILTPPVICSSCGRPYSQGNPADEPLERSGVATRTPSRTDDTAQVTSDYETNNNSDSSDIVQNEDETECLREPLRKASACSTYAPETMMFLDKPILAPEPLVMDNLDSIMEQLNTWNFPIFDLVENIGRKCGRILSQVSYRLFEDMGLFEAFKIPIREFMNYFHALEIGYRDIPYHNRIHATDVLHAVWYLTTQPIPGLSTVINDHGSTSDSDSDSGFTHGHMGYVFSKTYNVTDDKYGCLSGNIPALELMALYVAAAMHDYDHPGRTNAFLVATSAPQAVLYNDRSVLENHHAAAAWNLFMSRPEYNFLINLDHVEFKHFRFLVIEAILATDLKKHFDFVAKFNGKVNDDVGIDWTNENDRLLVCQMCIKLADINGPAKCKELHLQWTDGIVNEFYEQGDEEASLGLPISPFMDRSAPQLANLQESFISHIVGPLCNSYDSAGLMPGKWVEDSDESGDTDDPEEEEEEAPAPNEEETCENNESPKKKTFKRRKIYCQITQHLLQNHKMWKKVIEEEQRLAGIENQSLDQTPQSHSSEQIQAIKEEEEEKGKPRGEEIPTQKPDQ
pIC50: −log10 of the molar value.
Readout Kind: pIC50

Query: Recall the recorded pIC50 for `COc1ccc(NC(=O)[C@H](C)Nc2nc3c(cnn3-c3ccccc3Cl)c(=O)[nH]2)cc1` with UniProt:Q14432 and state it.
Response: < 4.30
